- Test system: phosphorylation of AKT (pAKT) in T47D cells expressing mutant PI3Ka (H1047R)
- procedure_text: In vitro cell pAKT (Ser473) HTRF, T47D cells
- Format: cell-based
- study_conditions: cellular pAKT, T47D cells, mutant PI3Ka (H1047R), 6 hours; read-out: Avg T-47D IC50
test_readout: IC50

Input: Give the reported IC50 for "Cc1cc([C@@H](C)Nc2ccc(F)cc2C(=O)O)c2cc(-c3cnc(C(C)(C)F)c(F)c3)n(C)c(=O)c2c1" (system: phosphorylation of AKT (pAKT) in T47D cells expressing mutant PI3Ka (H1047R)).
Output: 1 to 500 nM

Input: Look up IC50 with phosphorylation of AKT (pAKT) in T47D cells expressing mutant PI3Ka (H1047R) for this compound: Cc1cc(C(C)Nc2ccccc2C(=O)O)c2cc(N3CC4(CC(C(F)(F)F)C4)C3)n(C)c(=O)c2c1 (single isomer, unassigned) [Example 83]
Output: > 15000 nM

Input: Param readout = IC50; param system = phosphorylation of AKT (pAKT) in T47D cells expressing mutant PI3Ka (H1047R); param query = Cc1cc(C(C)Nc2ccccc2C(=O)O)c2cc(C3=CCC(C)(C)CC3)n(C)c(=O)c2c1 (single isomer, unassigned) [Example 5] ; response: value
Output: 2000 to 15000 nM

Input: Item: Cc1cc(C(C)Nc2ccccc2C(=O)O)c2cc(N3CCC(c4ccccc4)C3)n(C)c(=O)c2c1 (mixture of isomers) [Example 60] Test system: phosphorylation of AKT (pAKT) in T47D cells expressing mutant PI3Ka (H1047R) Read-out: IC50 Value: ?
Output: 1 to 500 nM

Input: Query IC50 on phosphorylation of AKT (pAKT) in T47D cells expressing mutant PI3Ka (H1047R) for C[C@@H](Nc1cccc(F)c1C(=O)O)c1cc(F)cc2c(=O)n(C)c(C3CC3(F)F)cc12 (single isomer, unassigned) [Example 480]
Output: 1 to 500 nM

Input: Lookup: IC50 / phosphorylation of AKT (pAKT) in T47D cells expressing mutant PI3Ka (H1047R) / "C[C@@H](Nc1ccccc1C(=O)O)c1cc(F)cc2c(=O)n(C)c(-c3cnc(-c4ncc(Cl)cc4F)c(F)c3)cc12"
Output: 1 to 500 nM

Input: Form field - read-out: IC50; system: phosphorylation of AKT (pAKT) in T47D cells expressing mutant PI3Ka (H1047R); submitted item: "Cc1cc([C@@H](C)Nc2ccccc2C(=O)O)c2cc(N3CC4(CCCN(CC(F)(F)F)C4)C3)n(C)c(=O)c2c1"
Output: 1 to 500 nM

Input: Request: IC50, test system phosphorylation of AKT (pAKT) in T47D cells expressing mutant PI3Ka (H1047R), entry Cc1ccc(N2CCN(c3cc4c(C(C)Nc5ccccc5C(=O)O)cc(F)cc4c(=O)n3C)CC2)c(C)n1 (stereo not shown)
Output: 1 to 500 nM

Input: Could you share what IC50 was measured for Cc1cc([C@@H](C)Nc2cccc(F)c2C(=O)O)c2cc(C3C[C@H]3C)n(C)c(=O)c2c1 (single isomer, unassigned) , tested on phosphorylation of AKT (pAKT) in T47D cells expressing mutant PI3Ka (H1047R)?
Output: 1 to 500 nM

Input: // fetch phosphorylation of AKT (pAKT) in T47D cells expressing mutant PI3Ka (H1047R) IC50 for "Cc1cc([C@@H](C)Nc2ccccc2C(=O)O)c2cc(N3CCN(c4cn(C)nn4)CC3)n(C)c(=O)c2c1"
Output: 2000 to 15000 nM

Input: Field: IC50 (phosphorylation of AKT (pAKT) in T47D cells expressing mutant PI3Ka (H1047R)). Entry: Cc1cc(C(C)Nc2ccccc2C(=O)O)c2cc(N3CCN(C)CC3)n(C)c(=O)c2c1 (single isomer, unassigned) [Example 13]
Output: 500 to 2000 nM

Input: Fill in the recorded IC50 for this compound, with phosphorylation of AKT (pAKT) in T47D cells expressing mutant PI3Ka (H1047R) as test system: Cc1cc(C(C)Nc2ccccc2C(=O)O)c2cc(C#Cc3ccccc3)n(C)c(=O)c2c1 (single isomer, unassigned) [Example 35]
Output: > 15000 nM

Input: Observed IC50 on phosphorylation of AKT (pAKT) in T47D cells expressing mutant PI3Ka (H1047R) for C[C@@H](Nc1ccccc1C(=O)O)c1cc(F)cc2c(=O)n(C)c(C3CC3(F)F)cc12 (single isomer, unassigned) [Example 482] , please.
Output: 1 to 500 nM
